Test system: S. Typhi PhoP-promoter GFP reporter, fluorescence, 4 h
Test: PhoP regulon inhibitor project modified counter assay, GFP fluorescence readout, dose response (AID 1985)
observed-property: pIC50
pIC50 here is simply -log10 of the concentration when that concentration is written in mol/L.

molecule: COc1cccc(/C=N/NC(=O)C(=O)N2CCCC2)c1O
pIC50: 3.99
//
molecule: O=C(C[n+]1cnn(CC(=O)c2ccc(Cl)cc2Cl)c1)c1ccc([N+](=O)[O-])cc1
pIC50: 4.37
//
molecule: CCn1cc(C(=O)O)c(=O)c2cc(F)c(N3CCN(S(=O)(=O)c4ccc(NC(C)=O)cc4)CC3)cc21
pIC50: 4.06
//
molecule: CN(Cc1ccccc1O)CC1CCCN(CCc2ccc(Cl)cc2)C1 (stereo not drawn)
pIC50: 4.29
//
molecule: O=C(Nc1nnc(-c2ccccn2)o1)c1cccc(Cl)c1
pIC50: 3.97

input: I have this molecule here, "C#CCOCCOCCOCCNc1nc(N2CCN(C(=O)CCCCCCCCCCNC(=O)[C@H](CCCCN)n3cc(C[C@@H](C)CC)nn3)CC2)nc(N2CCN(C(=O)CCCCCCCCCCNC(=O)[C@@H]([C@H](C)O)n3cc(C)nn3)CC2)n1" , and I need its recorded pIC50.
output: 3.86

input: And "NC1=NC[C@H](CC2CCCCC2)N1CCc1cc(C(F)(F)F)cc(C(F)(F)F)c1" ?
output: 4.42

input: And "O=C(Nc1nc(-c2ccccn2)cs1)c1ccc(Cl)s1" ?
output: 4.67

input: And "O=C(C[n+]1ccc(-c2ccccc2)cc1)Nc1ccc([N+](=O)[O-])cc1" ?
output: 4.56

input: And "Oc1ccc(C[C@H]2CNCCN2CCCCC2CCCCC2)cc1" ?
output: 4.09

input: And CSc1ccc2c(c1)C(N1CCN(C)CC1)Cc1ccccc1S2 (stereo not drawn) ?
output: 4.25

input: And "Cc1c(Cl)cccc1Nc1nc(NCCO)c2ccccc2n1" ?
output: 4.42

input: And "C(=N\Nc1ccccn1)/c1cccnc1" ?
output: 4.43

input: And "Oc1c(Cl)cc(CN2CCCCC2)c2cccnc12" ?
output: 4.83

input: And CC(NCc1ccccc1O)C12CC3CC(CC(C3)C1)C2 (stereo not drawn) ?
output: 4.09

input: And "OCCCCNCc1ccc(OCc2ccc(Cl)cc2Cl)cc1" ?
output: 3.88

input: And "Oc1cccc(C=NCc2ccccc2)c1O" ?
output: 4.24

input: And CCOc1ccc(Nc2nc(NCC3CCCO3)c3ccccc3n2)cc1 (stereo not drawn) ?
output: 4.85

input: And "CCn1cc(C(=O)O)c(=O)c2ccc(C)nc21" ?
output: 4.12

input: And "COc1cccc(/C=N\NC(=O)Cn2nnc3ccccc32)c1O" ?
output: 4.01

input: And "CSc1nc2ccc(Cl)cc2[nH]1" ?
output: 4.30

input: And "O=C(Nc1nonc1NC(=O)c1cccs1)c1cccs1" ?
output: 4.00

input: And Cc1cccc2c1Sc1ccc(Cl)cc1CC2N1CCNCC1 (stereo not drawn) ?
output: 4.49

input: And "O=C(Nc1ccc2nc(-c3ccc(Br)o3)[nH]c2c1)c1cccs1" ?
output: 4.10
